B1: HDV Ribozyme (parent)
chain: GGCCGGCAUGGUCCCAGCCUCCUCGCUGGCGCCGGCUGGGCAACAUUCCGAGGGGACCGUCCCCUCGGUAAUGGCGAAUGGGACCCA

# Variants of: B1
# method: self-cleavage, relative activity (ratio to wild type); higher = more cleavage; co-transcriptional
The entries below come with measured self-cleavage values attached.
Please respond with just the number, no unit label.

Field: example entries. Status: answers known.
mutation.name	test.result
G55U U72G	0.652
U27C G28U	0.0678
U46A U65G	0.675
G25A C85A	0.237
C18A G80C	0

QUERY: // self-cleavage lookup, key: C13A U47A
RESULT: 0.148

QUERY: // self-cleavage lookup, key: G1A C22A
RESULT: 0.0831

Source listed as the RNAGym collection of RNA variant scans (doi:10.7554/elife.80360).
